- System: HTelo21 (DNA, G4) GGGTTAGGGTTAGGGTTAGGG
- MEASUREMENT_NOTES: ESI-MS peak intensities
- DETAILS: NH4+ (150 mM ammonium acetate); 15% methanol added before injection; 5 µM DNA; site 1 of 2
Simple rule here: Log K1 less than 5 is 1.0, otherwise 0.0.

SMILES_CODE	CLASS_LABEL
O=c1c2ccc(OCCCCN3CCCCC3)cc2oc2cc(OCCCCN3CCCCC3)ccc12	1.0
CN1CCN(CCCCOc2ccc3c(=O)c4ccc(OCCCCN5CCN(C)CC5)cc4oc3c2)CC1	1.0
CN(C)CCCCCC(=O)c1ccc2c(c1)C(CCCCN(C)C)c1cc(C(=O)CCCCCN(C)C)ccc1O2	0.0
CN(C)CCCCCC(=O)c1ccc2oc3ccc(C(=O)CCCCCN(C)C)cc3c(=O)c2c1	1.0
O=C(CCCCCN1CCCCC1)c1ccc2c(c1)C(CCCC1c3cc(C(=O)CCCCCN4CCCCC4)ccc3Oc3ccc(C(=O)CCCCCN4CCCCC4)cc31)c1cc(C(=O)CCCCCN3CCCCC3)ccc1O2	0.0
CN(C)CCCCOc1ccc2c(=O)c3ccc(OCCCCN(C)C)cc3oc2c1	1.0

====

- System: DK66 (DNA, duplex) CGCGAATTCGCG
- MEASUREMENT_NOTES: ESI-MS peak intensities
- DETAILS: NH4+ (150 mM ammonium acetate); 15% methanol added before injection; 5 µM DNA; site 1 of 2

SMILES_CODE	Log K1
CN(C)CCCCCC(=O)c1ccc2c(c1)C(CCCCN(C)C)c1cc(C(=O)CCCCCN(C)C)ccc1O2	3.6
CN(C)CCCCOc1ccc2c(=O)c3ccc(OCCCCN(C)C)cc3oc2c1	3.6
CN(C)CCCCCC(=O)c1ccc2c(c1)Cc1cc(C(=O)CCCCCN(C)C)ccc1O2	3.4
CN1CCN(CCCCCC(=O)c2ccc3oc4ccc(C(=O)CCCCCN5CCN(C)CC5)cc4c(=O)c3c2)CC1	1.8
CN(C)CCCCCC(=O)c1ccc2oc3ccc(C(=O)CCCCCN(C)C)cc3c(=O)c2c1	3.3
O=C(CCCCCN1CCCCC1)c1ccc2oc3ccc(C(=O)CCCCCN4CCCCC4)cc3c(=O)c2c1	3.7
CN1CCN(CCCCCC(=O)c2ccc3c(c2)Cc2cc(C(=O)CCCCCN4CCN(C)CC4)ccc2O3)CC1	3.7
O=C(CCCCCN1CCCCC1)c1ccc2c(c1)Cc1cc(C(=O)CCCCCN3CCCCC3)ccc1O2	3.8
O=C(CCCCCN1CCCCC1)c1ccc2c(c1)C(CCCC1c3cc(C(=O)CCCCCN4CCCCC4)ccc3Oc3ccc(C(=O)CCCCCN4CCCCC4)cc31)c1cc(C(=O)CCCCCN3CCCCC3)ccc1O2	3.9
CN1CCN(CCCCOc2ccc3c(=O)c4ccc(OCCCCN5CCN(C)CC5)cc4oc3c2)CC1	3.5

Recorded values, source paper PMC6269716.
